Biological target: Inhibitor of nuclear factor kappa-B kinase subunit beta (Homo sapiens, UniProt O14920)
Sequence (O14920 whole entry): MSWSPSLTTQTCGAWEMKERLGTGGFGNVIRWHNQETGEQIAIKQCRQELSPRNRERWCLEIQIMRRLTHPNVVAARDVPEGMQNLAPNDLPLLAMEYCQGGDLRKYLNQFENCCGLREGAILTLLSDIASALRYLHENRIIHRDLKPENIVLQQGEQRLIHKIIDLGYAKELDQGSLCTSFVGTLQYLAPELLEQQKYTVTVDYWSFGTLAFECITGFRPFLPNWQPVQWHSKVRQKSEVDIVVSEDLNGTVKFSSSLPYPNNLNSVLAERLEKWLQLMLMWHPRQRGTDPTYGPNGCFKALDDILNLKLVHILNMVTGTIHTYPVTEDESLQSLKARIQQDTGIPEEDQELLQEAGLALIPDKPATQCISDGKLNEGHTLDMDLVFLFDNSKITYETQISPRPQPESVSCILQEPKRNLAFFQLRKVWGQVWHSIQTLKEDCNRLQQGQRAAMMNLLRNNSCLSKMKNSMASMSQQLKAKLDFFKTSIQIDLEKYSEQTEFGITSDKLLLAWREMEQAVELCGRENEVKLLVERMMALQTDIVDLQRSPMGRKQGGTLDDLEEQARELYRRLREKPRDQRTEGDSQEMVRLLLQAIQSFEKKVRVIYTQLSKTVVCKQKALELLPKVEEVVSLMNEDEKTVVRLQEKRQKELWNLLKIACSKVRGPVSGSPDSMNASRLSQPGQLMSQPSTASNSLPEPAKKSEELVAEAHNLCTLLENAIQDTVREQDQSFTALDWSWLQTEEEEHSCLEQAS
Assay: Inhibitory activity against IKK2
Kindly apply the following: YES if IC50 is less than 200 nM, NO in every other case.

[
  {
    "compound_smiles": "O=C(O)c1ccccc1Nc1nccc(-c2cc3ccccc3s2)n1",
    "category_label": "NO"
  },
  {
    "compound_smiles": "COc1cc(Nc2nccc(-c3cc4ccccc4s3)n2)ccc1C(=O)N1CCC(N2CCCC2)CC1",
    "category_label": "YES"
  },
  {
    "compound_smiles": "O=C(c1ccc(Nc2nccc(-c3cc4ccccc4s3)n2)cc1)N1CCC(N2CCCC2)CC1",
    "category_label": "YES"
  },
  {
    "compound_smiles": "O=C(c1ccc(Nc2nccc(-c3ccc(CCCCO)s3)n2)cc1)N1CCC(N2CCCC2)CC1",
    "category_label": "YES"
  },
  {
    "compound_smiles": "NCCNC(=O)c1ccc(Nc2nccc(-c3cc4ccccc4s3)n2)cc1",
    "category_label": "NO"
  },
  {
    "compound_smiles": "CC(C)(O)CCc1ccc(-c2ccnc(Nc3ccc(C(=O)N4CCC(N5CCCC5)CC4)cc3)n2)s1",
    "category_label": "YES"
  },
  {
    "compound_smiles": "CC(C)CCNC(=O)c1ccc(Nc2nccc(-c3cc4ccccc4s3)n2)cc1",
    "category_label": "NO"
  },
  {
    "compound_smiles": "O=C(O)Cc1ccc(Nc2nccc(-c3cc4ccccc4s3)n2)cc1",
    "category_label": "NO"
  },
  {
    "compound_smiles": "O=C(NCCN1CCCC1)c1ccc(Nc2nccc(-c3cc4ccccc4s3)n2)cc1",
    "category_label": "NO"
  },
  {
    "compound_smiles": "O=C(O)c1ccc(Nc2nccc(-c3cc4ccccc4s3)n2)cc1",
    "category_label": "NO"
  }
]

Please turn your attention to the following entry.
Check if IC50 falls below 200 nM for "O=C(c1ccc(Nc2nccc(-c3cc4ccccc4s3)n2)cc1Cl)N1CCC(N2CCCC2)CC1" .
YES
